- tested on: Adenosine receptor A1 (Homo sapiens, UniProt P30542)
- Sequence (P30542 whole entry): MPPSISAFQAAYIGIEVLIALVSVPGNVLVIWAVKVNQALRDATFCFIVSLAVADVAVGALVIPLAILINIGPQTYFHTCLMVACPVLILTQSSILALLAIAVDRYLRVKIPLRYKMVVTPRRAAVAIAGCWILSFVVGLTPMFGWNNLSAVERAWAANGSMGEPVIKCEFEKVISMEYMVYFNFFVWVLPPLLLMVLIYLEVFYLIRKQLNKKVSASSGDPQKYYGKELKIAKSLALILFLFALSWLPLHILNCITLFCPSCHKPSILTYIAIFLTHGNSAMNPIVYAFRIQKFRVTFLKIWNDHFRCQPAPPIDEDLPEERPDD
- assay overview: Displacement of [3H]CCPA from recombinant human A1 adenosine receptor expressed in CHO cell membranes measured after 90 mins in presence of adenosine deaminase by liquid scintillation counting method
assay metric: Ki

// field: Ki; key: `CCCn1c(=O)[nH]c2nc(-c3ccc(S(=O)(=O)N4CCN(c5ccc(F)cc5)CC4)cc3)[nH]c2c1=O` ; value = > 1000 nM

// field: Ki; key: `CCCn1c(=O)[nH]c2nc(-c3ccc(S(=O)(=O)N4CCN(Cc5cccc(Br)c5)CC4)cc3)[nH]c2c1=O` ; value = 928 nM

// field: Ki; key: `CCCn1c(=O)[nH]c2nc(-c3ccc(S(=O)(=O)N4CCN(c5ccc(C)cc5)CC4)cc3)[nH]c2c1=O` ; value = > 1000 nM

###

- tested on: Adenosine receptor A2b (Homo sapiens, UniProt P29275)
- assay overview: Displacement of [3H]PSB-603 from recombinant human A2B adenosine receptor expressed in CHO cell membranes measured after 75 mins in presence of adenosine deaminase by liquid scintillation counting method
pKi: −log10 of the molar value.
assay metric: pKi

>  <chemical smiles>
CCCn1c(=O)[nH]c2nc(-c3ccc(S(=O)(=O)N4CCN(Cc5ccc(N=[N+]=[N-])cc5)CC4)cc3)[nH]c2c1=O

>  <val>
9.61

$$$$

[I] CCCn1c(=O)[nH]c2nc(-c3ccc(S(=O)(=O)N4CCN(c5ccc(Cl)cc5F)CC4)cc3)[nH]c2c1=O
[II] CCCn1c(=O)[nH]c2nc(-c3ccc(S(=O)(=O)N4CCN(c5cccc(Br)c5)CC4)cc3)[nH]c2c1=O
[III] CCCn1c(=O)[nH]c2nc(-c3ccc(S(=O)(=O)N4CCN(c5cccc(F)c5)CC4)cc3)[nH]c2c1=O
query: // smallest pKi at index 0, largest at the end Please respond with the labels ordered as the question requires.
result: I, III, II

###

- tested on: Adenosine receptor A2b (Homo sapiens) (UniProt P29275)
- Sequence (P29275 whole entry): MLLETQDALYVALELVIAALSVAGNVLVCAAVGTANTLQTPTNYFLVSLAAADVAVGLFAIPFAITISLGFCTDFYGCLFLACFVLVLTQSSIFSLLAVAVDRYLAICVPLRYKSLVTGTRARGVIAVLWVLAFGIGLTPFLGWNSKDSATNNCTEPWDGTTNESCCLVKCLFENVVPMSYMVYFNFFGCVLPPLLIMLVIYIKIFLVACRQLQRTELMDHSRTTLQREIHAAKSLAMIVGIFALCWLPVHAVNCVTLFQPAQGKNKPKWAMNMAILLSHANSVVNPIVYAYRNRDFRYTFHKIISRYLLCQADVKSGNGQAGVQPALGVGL
- assay overview: Competitive antagonist activity at recombinant human A2B adenosine receptor expressed in CHO cells assessed as reduction in NECA-induced […] cAMP accumulation preincubated for 10 mins followed by NECA stimulation for 15 mins […] and measured after 15 mins
- Format: functional, cell-based
assay metric: Kb (nM)

Sample records with Kb:
>  <chemical smiles>
CCCn1c(=O)[nH]c2nc(-c3ccc(S(=O)(=O)N4CCN(c5cccc(F)c5)CC4)cc3)[nH]c2c1=O

>  <units label>
nM

>  <Kb>
0.167

$$$$
>  <chemical smiles>
CCCn1c(=O)[nH]c2nc(-c3ccc(S(=O)(=O)N4CCN(c5ccc(Br)cc5)CC4)cc3)[nH]c2c1=O

>  <units label>
nM

>  <Kb>
0.0598

$$$$

[a] CCCn1c(=O)[nH]c2nc(-c3ccc(S(=O)(=O)N4CCN(Cc5cccc(Br)c5)CC4)cc3)[nH]c2c1=O
[b] CCCn1c(=O)c2[nH]c(-c3ccc(S(=O)(=O)N4CCN(c5ccc(Cl)cc5)CC4)cc3)nc2n(C)c1=O
query: Quick one: lower Kb, a or b ? Label of pick, please.
result: a
(a: 0.201 nM, b: 1.61 nM)

###

- tested on: Adenosine receptor A2b (Homo sapiens, UniProt P29275)
- assay overview: Displacement of [3H]PSB-603 from recombinant human A2B adenosine receptor expressed in CHO cell membranes measured after 75 mins in presence of adenosine deaminase by liquid scintillation counting method
assay metric: Ki (pM)

Sample records with Ki:
>  <compound>
CCCn1c(=O)[nH]c2nc(-c3ccc(S(=O)(=O)N4CCN(Cc5ccc(Br)cc5)CC4)cc3)[nH]c2c1=O

>  <tested on>
Adenosine receptor A2b (Homo sapiens, UniProt P29275)

>  <units label>
pM

>  <Ki>
153

$$$$
>  <compound>
CCCn1c(=O)[nH]c2nc(-c3ccc(S(=O)(=O)N4CCN(Cc5ccc(OCCO)cc5)CC4)cc3)[nH]c2c1=O

>  <tested on>
Adenosine receptor A2b (Homo sapiens, UniProt P29275)

>  <units label>
pM

>  <Ki>
12200

$$$$
>  <compound>
CCCn1c(=O)[nH]c2nc(-c3ccc(S(=O)(=O)N4CCN(c5ccc(OCCO)cc5)CC4)cc3)[nH]c2c1=O

>  <tested on>
Adenosine receptor A2b (Homo sapiens, UniProt P29275)

>  <units label>
pM

>  <Ki>
6080

$$$$
>  <compound>
CCCn1c(=O)[nH]c2nc(-c3ccc(S(=O)(=O)N4CCN(c5ccccc5Cl)CC4)cc3)[nH]c2c1=O

>  <tested on>
Adenosine receptor A2b (Homo sapiens, UniProt P29275)

>  <units label>
pM

>  <Ki>
403

$$$$
>  <compound>
CCCn1c(=O)[nH]c2nc(-c3ccc(S(=O)(=O)N4CCN(c5ccccc5)C(C)C4)cc3)[nH]c2c1=O (stereo unspecified)

>  <tested on>
Adenosine receptor A2b (Homo sapiens, UniProt P29275)

>  <units label>
pM

>  <Ki>
7150

$$$$
>  <compound>
CCCn1c(=O)[nH]c2nc(-c3ccc(S(=O)(=O)N4CCN(c5ccccc5)CC4)cc3)[nH]c2c1=O

>  <tested on>
Adenosine receptor A2b (Homo sapiens, UniProt P29275)

>  <units label>
pM

>  <Ki>
643

$$$$
>  <compound>
CCCn1c(=O)[nH]c2nc(-c3ccc(S(=O)(=O)N4CCN(c5ccc(F)cc5)CC4)cc3)[nH]c2c1=O

>  <tested on>
Adenosine receptor A2b (Homo sapiens, UniProt P29275)

>  <units label>
pM

>  <Ki>
644

$$$$
>  <compound>
CCCn1c(=O)[nH]c2nc(-c3ccc(S(=O)(=O)N4CCN(c5ccccc5Br)CC4)cc3)[nH]c2c1=O

>  <tested on>
Adenosine receptor A2b (Homo sapiens, UniProt P29275)

>  <units label>
pM

>  <Ki>
137

$$$$

[A] CCCn1c(=O)[nH]c2nc(-c3ccc(S(=O)(=O)N4CCN(c5ccc(O)cc5)CC4)cc3)[nH]c2c1=O
[B] CCCn1c(=O)[nH]c2nc(-c3ccc(S(=O)(=O)N4CCN(c5ccc(OC)c(F)c5)CC4)cc3)[nH]c2c1=O
query: So which one has the bigger Ki here, A or B ? Label of pick, please.
result: A

###

Overview of reported Ki across a group of compounds:
- tested on: Adenosine receptor A1 (Homo sapiens, UniProt P30542)
- assay overview: Displacement of [3H]CCPA from recombinant human A1 adenosine receptor expressed in CHO cell membranes measured after 90 mins in presence of adenosine deaminase by liquid scintillation counting method

>  <compound>
CCCn1c(=O)[nH]c2nc(-c3ccc(S(=O)(=O)N4CCN(c5ccccc5Br)CC4)cc3)[nH]c2c1=O

>  <val>
> 1 µM

$$$$
>  <compound>
CCCn1c(=O)[nH]c2nc(-c3ccc(S(=O)(=O)N4CCN(c5ccc(Cl)c(OC)c5)CC4)cc3)[nH]c2c1=O

>  <val>
0.535 µM

$$$$
>  <compound>
CCCn1c(=O)[nH]c2nc(-c3ccc(S(=O)(=O)N4CCN(Cc5cc(F)cc(OC)c5)CC4)cc3)[nH]c2c1=O

>  <val>
> 1 µM

$$$$
>  <compound>
CCCn1c(=O)[nH]c2nc(-c3ccc(S(=O)(=O)N4CCN(c5ccc(Cl)cc5F)CC4)cc3)[nH]c2c1=O

>  <val>
> 1 µM

$$$$
>  <compound>
CCCn1c(=O)[nH]c2nc(-c3ccc(S(=O)(=O)N4CCN(c5cccc(Cl)c5)CC4)cc3)[nH]c2c1=O

>  <val>
> 1 µM

$$$$

// field: Ki; key: `CCCn1c(=O)c2[nH]c(-c3ccc(S(=O)(=O)N4CCN(c5ccc(Cl)cc5)CC4)cc3)nc2n(C)c1=O` ; value = > 1 µM

// field: Ki; key: `CCCn1c(=O)[nH]c2nc(-c3ccc(S(=O)(=O)N4CCN(c5ccccc5)CC4)cc3)[nH]c2c1=O` ; value = 0.364 µM

// field: Ki; key: `CCCn1c(=O)[nH]c2nc(-c3ccc(S(=O)(=O)N4CCN(Cc5ccc(OCCO)cc5)CC4)cc3)[nH]c2c1=O` ; value = 0.56 µM

// field: Ki; key: `CCCn1c(=O)[nH]c2nc(-c3ccc(S(=O)(=O)N4CCN(c5ccc(OCCO)cc5)CC4)cc3)[nH]c2c1=O` ; value = > 1 µM

// field: Ki; key: `CCCn1c(=O)[nH]c2nc(-c3ccc(S(=O)(=O)N4CCN(C)CC4)cc3)[nH]c2c1=O` ; value = 0.334 µM

###

- tested on: Adenosine receptor A2b (Homo sapiens, UniProt P29275)
- assay overview: Displacement of [3H]PSB-603 from recombinant human A2B adenosine receptor expressed in CHO cell membranes measured after 75 mins in presence of adenosine deaminase by liquid scintillation counting method
assay metric: Ki (nM)

Sample records with Ki:
>  <molecule>
CCCn1c(=O)[nH]c2nc(-c3ccc(S(=O)(=O)N4CCN(Cc5ccc(OCCOCCOC)cc5)CC4)cc3)[nH]c2c1=O

>  <val>
7.02

$$$$
>  <molecule>
CCCn1c(=O)[nH]c2nc(-c3ccc(S(=O)(=O)N4CCN(C(=O)c5ccccc5)CC4)cc3)[nH]c2c1=O

>  <val>
5.69

$$$$
>  <molecule>
CCCn1c(=O)[nH]c2nc(-c3ccc(S(=O)(=O)N4CCN(Cc5ccc(C(=O)O)cc5)CC4)cc3)[nH]c2c1=O

>  <val>
96.7

$$$$
>  <molecule>
CCCn1c(=O)[nH]c2nc(-c3ccc(S(=O)(=O)N4CCN(Cc5ccc(Br)c(F)c5)CC4)cc3)[nH]c2c1=O

>  <val>
0.473

$$$$
>  <molecule>
CCCn1c(=O)[nH]c2nc(-c3ccc(S(=O)(=O)N4CCN(c5ccc(O)c(Cl)c5)CC4)cc3)[nH]c2c1=O

>  <val>
3.55

$$$$
>  <molecule>
CCCn1c(=O)[nH]c2nc(-c3ccc(S(=O)(=O)N4CCN(c5ccccc5C)CC4)cc3)[nH]c2c1=O

>  <val>
0.432

$$$$
>  <molecule>
CCCn1c(=O)[nH]c2nc(-c3ccc(S(=O)(=O)N4CCN(Cc5cccc(OC)c5)CC4)cc3)[nH]c2c1=O

>  <val>
1.28

$$$$
>  <molecule>
CCCn1c(=O)[nH]c2nc(-c3ccc(S(=O)(=O)N4CCN(C(C)c5ccccc5)CC4)cc3)[nH]c2c1=O (stereo unspecified)

>  <val>
8.34

$$$$

[a] CCCn1c(=O)[nH]c2nc(-c3ccc(S(=O)(=O)N4CCN(Cc5cc(F)cc(OC)c5)CC4)cc3)[nH]c2c1=O
[b] CCCn1c(=O)[nH]c2nc(-c3ccc(S(=O)(=O)N4CCN(c5ccccc5F)CC4)cc3)[nH]c2c1=O
query: Quick one: lower Ki, a or b ? Label of pick, please.
result: a

[a] CCCn1c(=O)[nH]c2nc(-c3ccc(S(=O)(=O)N4CCN(c5cccc(Cl)c5)CC4)cc3)[nH]c2c1=O
[b] CCCn1c(=O)[nH]c2nc(-c3ccc(S(=O)(=O)N4CCN(c5ccc(Cl)c(OC)c5)CC4)cc3)[nH]c2c1=O
[c] CCCn1c(=O)[nH]c2nc(-c3ccc(S(=O)(=O)N4CCN(Cc5ccc(OC)c(F)c5)CC4)cc3)[nH]c2c1=O
[d] CCCn1c(=O)[nH]c2nc(-c3ccc(S(=O)(=O)N4CCN(c5ccc(Br)cc5)CC4)cc3)[nH]c2c1=O
query: Ranking field: Ki; order: falling. Please respond with the labels ordered as the question requires.
result: c, a, b, d

These entries and their values trace back to ChEMBL document CHEMBL4346653.
